# pIC50 listing for each entry below
molecular target: Adenosine receptor A3 (Homo sapiens, UniProt P0DMS8); test: Inhibition of cAMP accumulation in CHO cells expressing human adenosine A3 receptor; assay type: functional, cell-based
Sequence (P0DMS8 whole entry): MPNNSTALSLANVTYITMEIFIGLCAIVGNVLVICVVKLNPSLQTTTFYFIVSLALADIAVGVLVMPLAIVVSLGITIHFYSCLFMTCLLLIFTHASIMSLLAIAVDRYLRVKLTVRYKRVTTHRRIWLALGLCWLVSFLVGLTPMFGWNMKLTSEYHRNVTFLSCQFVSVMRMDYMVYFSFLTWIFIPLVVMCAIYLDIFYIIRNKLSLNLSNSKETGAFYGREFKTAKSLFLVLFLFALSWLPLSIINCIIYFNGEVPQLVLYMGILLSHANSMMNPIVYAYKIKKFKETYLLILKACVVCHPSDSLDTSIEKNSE
Keep it numeric: pIC50 is minus log10 of the concentration in mol/L.

Some solved entries appear below for comparison.
{"STRUCTURE_SMILES_STRING": "COc1ccc(NC(=O)Nc2nc3nn(CCc4ccccc4)cc3c3nc(-c4ccco4)nn23)cc1", "pIC50": 7.86}
{"STRUCTURE_SMILES_STRING": "O=C(Nc1cccc(Cl)c1)Nc1nc2ccc(Cl)cc2c2nc(-c3ccco3)nn12", "pIC50": 8.62}

INPUT: Which measured pIC50 value corresponds to Nc1nc2ccc(Cl)cc2c2nc(-c3ccco3)nn12 ?
OUTPUT: 6.39
